Here, each record is paired with measured melting point data.

Please review the following examples before continuing.
CN([C@H]1CC[C@H](Nc2nccc(-n3ncc4c(OCCCS(C)(=O)=O)cccc43)n2)CC1)S(C)(=O)=O ... 208.8 to 209.6 °C
CS(=O)(=O)CCCOc1cccc2c1ccn2-c1ccnc(N[C@H]2CC[C@H](C(=O)N3CCC(C#N)CC3)CC2)n1 ... 150.5 to 156.5 °C
CC(=O)N1CCN(c2cccc3c2ccn3-c2ccnc(N[C@H]3CC[C@H](N(CCO)S(C)(=O)=O)CC3)n2)CC1 ... 244.5 to 248.8 °C

So what does the record say about melting point for N#CCCCOc1cccc2c1cnn2-c1ccnc(N[C@H]2CC[C@H](C(=O)N3CCC(O)CC3)CC2)n1 ?
201 to 202 °C

Return reported melting point; argument: COC1CN(C(=O)[C@H]2CC[C@H](Nc3nccc(-n4ccc5c(OCCCS(C)(=O)=O)cccc54)n3)CC2)C1
162 to 163 °C

Return reported melting point; argument: N#CCCCOc1cccc2c1ccn2-c1ccnc(N[C@H]2CC[C@H](C(=O)N3CCC(O)CC3)CC2)n1
134 to 136 °C

* * *

target: Human JNK2α2 (Homo sapiens); test: JNK assay in vitro (phosphorylation of GST-ATF2 with [γ-33P]ATP), JNK2; format: biochemical; settings: Km concentrations of ATP and substrate; 8 μM ATP, 1 μM ATF2
Sequence (P45984 whole entry): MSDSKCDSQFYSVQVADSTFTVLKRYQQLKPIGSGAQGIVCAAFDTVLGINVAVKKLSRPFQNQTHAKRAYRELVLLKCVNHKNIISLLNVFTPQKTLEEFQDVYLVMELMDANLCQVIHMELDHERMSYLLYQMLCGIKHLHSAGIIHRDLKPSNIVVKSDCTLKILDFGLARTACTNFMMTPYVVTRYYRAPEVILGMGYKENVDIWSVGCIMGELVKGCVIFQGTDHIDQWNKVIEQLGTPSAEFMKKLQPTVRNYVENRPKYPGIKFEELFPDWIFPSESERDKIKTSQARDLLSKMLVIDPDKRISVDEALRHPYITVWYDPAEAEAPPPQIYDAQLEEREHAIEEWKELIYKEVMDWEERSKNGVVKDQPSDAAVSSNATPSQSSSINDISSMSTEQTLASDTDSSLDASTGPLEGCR
Quantity measured: IC50 (nM)
Note: unit nM is implicit; provide only the numeric part.

Suppose we examine the molecule COc1cccc2c1cnn2-c1ccnc(N[C@H]2CC[C@H](O)CC2)n1 ; what IC50 value has been reported?
178

* * *

Quantity measured: melting point

For the compound shown here, C[C@H]1CC[C@H](Nc2nccc(-n3ncc4c([N+](=O)[O-])cccc43)n2)CC1 [Example 4] , give the reported melting point.
253.9 to 254.8 °C

* * *

Consider the following compounds and their measured melting point readings.

// worked examples, melting point included
CS(=O)(=O)CCCOc1cccc2c1cnn2-c1ccnc(N[C@H]2CC[C@H](NS(C)(=O)=O)CC2)n1 [Compound 156] ... 247 to 248 °C
CCCCOc1cccc2c1cnn2-c1ccnc(N[C@H]2CC[C@H](N(C)S(C)(=O)=O)CC2)n1 [Compound 190] ... 191 to 192 °C

Which melting point value belongs to CS(=O)(=O)CCCOc1cccc2c1ccn2-c1ccnc(N[C@H]2CC[C@H](C(=O)N3CCC(NC4CC4)CC3)CC2)n1 [Compound 302] ?
196.3 to 197.9 °C

I have this compound here, OCc1cccc2c1ccn2-c1ccnc(N[C@H]2CC[C@H](O)CC2)n1 [Example 10] , and I need its recorded melting point.
212 to 213.3 °C

// returns reported melting point for input O=[N+]([O-])c1ccc2cnn(-c3ccnc(N[C@H]4CC[C@H](O)CC4)n3)c2c1 [Compound 27]
221.8 to 223 °C

What melting point value was documented for this compound, COc1cccc2c1cnn2-c1ccnc(N[C@H]2CC[C@H](NS(C)(=O)=O)CC2)n1 [Compound 126] ?
291.5 to 292.5 °C

Returns the measured melting point for the input compound. Input: O=C(O)c1cccc2c1ccn2-c1ccnc(N[C@H]2CC[C@H](O)CC2)n1 [Example 7]
259 to 261 °C

Quick one: melting point for CS(=O)(=O)N[C@H]1CC[C@H](Nc2nccc(-n3ccc4c(OCCCC(F)(F)F)cccc43)n2)CC1 [Compound 235] ?
241 to 242 °C

* * *

Quantity measured: melting point

CS(=O)(=O)CCCOc1cccc2c1ccn2-c1ccnc(N[C@H]2CC[C@H](C(=O)N3CCC(F)CC3)CC2)n1 ... 115 to 116 °C
O=C([C@H]1CC[C@H](Nc2nccc(-n3ncc4c(OC[C@@H](O)CO)cccc43)n2)CC1)N1CCCC1 (stereo in doubt) ... 166 to 167 °C
CCc1cccc2c1cnn2-c1ccnc(N[C@H]2CC[C@H](O)CC2)n1 ... 170.2 to 174.4 °C

// query melting point value for entry Cl.NC[C@H]1CC[C@H](Nc2nccc(-n3ccc4c(OCCCC(F)(F)F)cccc43)n2)CC1
274 to 275 °C

Any idea what its melting point is? The compound is CS(=O)(=O)N[C@H]1CC[C@H](Nc2nccc(-n3ccc4c(C5(O)CCOCC5)cccc43)n2)CC1
248.3 to 249 °C

# lookup: melting point of COCCOCc1cccc2c1ccn2-c1ccnc(N[C@H]2CC[C@H](N(C)S(C)(=O)=O)CC2)n1
154 to 156.5 °C

Quick check: melting point of CC1(O)CCN(C(=O)[C@H]2CC[C@H](Nc3nccc(-n4ccc5c(OCCCS(C)(=O)=O)cccc54)n3)CC2)CC1 ?
132.6 to 137.7 °C

Look at this compound and give its reported melting point. CC(C)Oc1cccc2c1cnn2-c1ccnc(N[C@H]2CC[C@H](O)CC2)n1
188.2 to 189.2 °C

Any idea what its melting point is? The compound is CS(=O)(=O)CCCOc1cccc2c1ccn2-c1ccnc(N[C@H]2CC[C@H](NS(=O)(=O)c3cccs3)CC2)n1
226 to 227 °C

Give the measured melting point of CC(=O)N1CCN(c2cccc3c2ccn3-c2ccnc(N[C@H]3CC[C@H](NS(C)(=O)=O)CC3)n2)CC1 .
268 to 269 °C

* * *

Quantity measured: melting point

In the examples that follow, each entry is paired with its recorded melting point.
CS(=O)(=O)N[C@H]1CC[C@H](Nc2nccc(-n3ccc4c(OCC(O)CC(F)(F)F)cccc43)n2)CC1 (stereo partly shown) [Compound 314] ... 220.7 to 221.5 °C
CC1(C)OC[C@@H](COc2cccc3c2cnn3-c2ccnc(N[C@H]3CC[C@H](O)CC3)n2)O1 (stereo in doubt) [Compound 98] ... 189.2 to 190 °C
CS(=O)(=O)CCCOc1cccc2c1ccn2-c1ccnc(N[C@H]2CC[C@H](C(=O)N3CCCC(C#N)C3)CC2)n1 (stereo partly shown) [Compound 264] ... 132 to 133 °C

Record request: melting point value, item COC(=O)CCCOc1cccc2c1ccn2-c1ccnc(N[C@H]2CC[C@H](N(C)S(C)(=O)=O)CC2)n1 [Compound 284]
145 to 146 °C

* * *

target: Human JNK1α1 (Homo sapiens); assay: JNK assay in vitro (phosphorylation of GST-ATF2 with [γ-33P]ATP), JNK1; type: biochemical; details: Km concentrations of ATP and substrate; 6 μM ATP, 1 μM ATF2
Sequence (P45983 1-384 isoform P45983-2): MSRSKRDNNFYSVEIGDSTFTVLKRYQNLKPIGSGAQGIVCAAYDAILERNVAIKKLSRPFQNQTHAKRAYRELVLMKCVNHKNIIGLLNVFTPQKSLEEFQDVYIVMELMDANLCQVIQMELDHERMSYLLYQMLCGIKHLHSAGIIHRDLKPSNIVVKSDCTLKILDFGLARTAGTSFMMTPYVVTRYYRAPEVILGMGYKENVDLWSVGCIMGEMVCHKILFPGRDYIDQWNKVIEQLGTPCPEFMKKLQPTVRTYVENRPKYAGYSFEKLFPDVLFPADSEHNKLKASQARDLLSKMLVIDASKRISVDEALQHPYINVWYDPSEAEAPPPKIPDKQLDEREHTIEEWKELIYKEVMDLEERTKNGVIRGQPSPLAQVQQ
Quantity measured: pIC50
A value of pIC50 is the negative decimal logarithm of a concentration given in moles per litre.

Query: pIC50; subject: COc1cccc2c1cnn2-c1ccnc(N[C@H]2CC[C@H](O)CC2)n1
7.64

* * *

Quantity measured: melting point

Some solved cases for reference:
N#CCc1cccc2c1ccn2-c1ccnc(N[C@H]2CC[C@H](O)CC2)n1 ... 207 to 209 °C
CS(=O)(=O)N[C@H]1CC[C@H](Nc2nccc(-n3ccc4c(N5CCC(O)C5)cccc43)n2)CC1 (stereo partly drawn) ... 190.1 to 200.5 °C
CNC(=O)COc1cccc2c1cnn2-c1ccnc(N[C@H]2CC[C@H](C(=O)N(C)C)CC2)n1 ... 183 to 185 °C
COCCOc1cccc2c1ccn2-c1ccnc(N[C@H]2CC[C@H](NS(C)(=O)=O)CC2)n1 ... 203 to 205 °C
O=C(COc1cccc2c1cnn2-c1ccnc(N[C@H]2CC[C@H](O)CC2)n1)N[C@H]1CC[C@H](O)CC1 ... 220 to 222.3 °C

// melting point lookup, key: O=c1[nH]n(-c2ccnc(N[C@H]3CC[C@H](O)CC3)n2)c2ccccc12
263.5 to 264.4 °C

State the recorded melting point for this entry: COC(=O)N[C@H]1CC[C@H](Nc2nccc(-n3ncc4c(OCCCS(C)(=O)=O)cccc43)n2)CC1
226.8 to 227.3 °C

Item under review: CC1(C)OC[C@@H](COc2cccc3c2cnn3-c2ccnc(N[C@H]3CC[C@H](C(C)(C)O)CC3)n2)O1 (stereo in doubt) . Reported melting point?
178.5 to 180 °C

Value lookup for melting point; key = COC[C@@H]1CCCN1C(=O)[C@H]1CC[C@H](Nc2nccc(-n3ccc4c(OCCCS(C)(=O)=O)cccc43)n2)CC1 (stereo in doubt)
92 to 93 °C

// melting point lookup, key: O=C([C@H]1CC[C@H](Nc2nccc(-n3ncc4ccccc43)n2)CC1)N1CCOCC1
191 to 192 °C

Consider the compound CS(=O)(=O)CCCOc1cccc2c1ccn2-c1ccnc(N[C@H]2CC[C@H](C(=O)N3CCC(=O)CC3)CC2)n1 and give its measured melting point.
155 to 158.2 °C

Tell me the measured melting point of CC(=O)N[C@H]1CC[C@H](Nc2nccc(-n3ccc4c(C(C)(C)O)cccc43)n2)CC1 , please.
172 to 173.6 °C

What value of melting point has been recorded for this entry: CS(=O)(=O)CCCOc1cccc2c1ccn2-c1ccnc(N[C@H]2CC[C@H](CO)CC2)n1
207 to 208 °C

Query: melting point; subject: CS(=O)(=O)CCCOc1cccc2c1ccn2-c1ccnc(N[C@H]2CC[C@H](CN3CC[C@@H](O)C3)CC2)n1
139.6 to 150.3 °C

Please look up its melting point: CC(C)(O)[C@H]1CC[C@H](Nc2nccc(-n3ncc4c(OCCCNS(C)(=O)=O)cccc43)n2)CC1
171 to 172 °C
